- System: HepG2
- Experiment summary: Growth inhibition of human HepG2 cells after 48 hrs by MTT assay
- Assay type: functional, cell-based
- Measurement context: HepG2, 48 h
pIC50: −log10 of the molar value.

# Compound, pIC50
rows = [
    ("CS(=O)(=O)Nc1ccc([N+](=O)[O-])cc1Oc1ccccc1 [NIMESULIDE]", 4.45),
    ("CS(=O)(=O)Nc1ccc(-n2cc(COc3ccc(Cl)cc3)nn2)cc1Oc1ccccc1", 5.12),
    ("CS(=O)(=O)Nc1ccc(-n2cc(COc3ccc4ccccc4c3)nn2)cc1Oc1ccccc1", 4.71),
    ("Cc1ccc(OCc2cn(-c3ccc(NS(C)(=O)=O)c(Oc4ccccc4)c3)nn2)cc1", 4.89),
    ("CS(=O)(=O)Nc1ccc(-n2cc(-c3ccccc3)nn2)cc1Oc1ccccc1", 4.87),
    ("Cc1ccc(-c2cn(-c3ccc(NS(C)(=O)=O)c(Oc4ccccc4)c3)nn2)cc1", 4.74),
    ("CS(=O)(=O)Nc1ccc(-n2cc(COc3ccccc3Cl)nn2)cc1Oc1ccccc1", 4.60),
    ("Cc1cc(OCc2cn(-c3ccc(NS(C)(=O)=O)c(Oc4ccccc4)c3)nn2)ccc1Cl", 5.01),
]
